ASSAY TARGET: LRRK2 (Homo sapiens, UniProt Q5S007, G2019S)
Construct: purchased Invitrogen PV4882
Sequence (Q5S007 whole entry G2019S): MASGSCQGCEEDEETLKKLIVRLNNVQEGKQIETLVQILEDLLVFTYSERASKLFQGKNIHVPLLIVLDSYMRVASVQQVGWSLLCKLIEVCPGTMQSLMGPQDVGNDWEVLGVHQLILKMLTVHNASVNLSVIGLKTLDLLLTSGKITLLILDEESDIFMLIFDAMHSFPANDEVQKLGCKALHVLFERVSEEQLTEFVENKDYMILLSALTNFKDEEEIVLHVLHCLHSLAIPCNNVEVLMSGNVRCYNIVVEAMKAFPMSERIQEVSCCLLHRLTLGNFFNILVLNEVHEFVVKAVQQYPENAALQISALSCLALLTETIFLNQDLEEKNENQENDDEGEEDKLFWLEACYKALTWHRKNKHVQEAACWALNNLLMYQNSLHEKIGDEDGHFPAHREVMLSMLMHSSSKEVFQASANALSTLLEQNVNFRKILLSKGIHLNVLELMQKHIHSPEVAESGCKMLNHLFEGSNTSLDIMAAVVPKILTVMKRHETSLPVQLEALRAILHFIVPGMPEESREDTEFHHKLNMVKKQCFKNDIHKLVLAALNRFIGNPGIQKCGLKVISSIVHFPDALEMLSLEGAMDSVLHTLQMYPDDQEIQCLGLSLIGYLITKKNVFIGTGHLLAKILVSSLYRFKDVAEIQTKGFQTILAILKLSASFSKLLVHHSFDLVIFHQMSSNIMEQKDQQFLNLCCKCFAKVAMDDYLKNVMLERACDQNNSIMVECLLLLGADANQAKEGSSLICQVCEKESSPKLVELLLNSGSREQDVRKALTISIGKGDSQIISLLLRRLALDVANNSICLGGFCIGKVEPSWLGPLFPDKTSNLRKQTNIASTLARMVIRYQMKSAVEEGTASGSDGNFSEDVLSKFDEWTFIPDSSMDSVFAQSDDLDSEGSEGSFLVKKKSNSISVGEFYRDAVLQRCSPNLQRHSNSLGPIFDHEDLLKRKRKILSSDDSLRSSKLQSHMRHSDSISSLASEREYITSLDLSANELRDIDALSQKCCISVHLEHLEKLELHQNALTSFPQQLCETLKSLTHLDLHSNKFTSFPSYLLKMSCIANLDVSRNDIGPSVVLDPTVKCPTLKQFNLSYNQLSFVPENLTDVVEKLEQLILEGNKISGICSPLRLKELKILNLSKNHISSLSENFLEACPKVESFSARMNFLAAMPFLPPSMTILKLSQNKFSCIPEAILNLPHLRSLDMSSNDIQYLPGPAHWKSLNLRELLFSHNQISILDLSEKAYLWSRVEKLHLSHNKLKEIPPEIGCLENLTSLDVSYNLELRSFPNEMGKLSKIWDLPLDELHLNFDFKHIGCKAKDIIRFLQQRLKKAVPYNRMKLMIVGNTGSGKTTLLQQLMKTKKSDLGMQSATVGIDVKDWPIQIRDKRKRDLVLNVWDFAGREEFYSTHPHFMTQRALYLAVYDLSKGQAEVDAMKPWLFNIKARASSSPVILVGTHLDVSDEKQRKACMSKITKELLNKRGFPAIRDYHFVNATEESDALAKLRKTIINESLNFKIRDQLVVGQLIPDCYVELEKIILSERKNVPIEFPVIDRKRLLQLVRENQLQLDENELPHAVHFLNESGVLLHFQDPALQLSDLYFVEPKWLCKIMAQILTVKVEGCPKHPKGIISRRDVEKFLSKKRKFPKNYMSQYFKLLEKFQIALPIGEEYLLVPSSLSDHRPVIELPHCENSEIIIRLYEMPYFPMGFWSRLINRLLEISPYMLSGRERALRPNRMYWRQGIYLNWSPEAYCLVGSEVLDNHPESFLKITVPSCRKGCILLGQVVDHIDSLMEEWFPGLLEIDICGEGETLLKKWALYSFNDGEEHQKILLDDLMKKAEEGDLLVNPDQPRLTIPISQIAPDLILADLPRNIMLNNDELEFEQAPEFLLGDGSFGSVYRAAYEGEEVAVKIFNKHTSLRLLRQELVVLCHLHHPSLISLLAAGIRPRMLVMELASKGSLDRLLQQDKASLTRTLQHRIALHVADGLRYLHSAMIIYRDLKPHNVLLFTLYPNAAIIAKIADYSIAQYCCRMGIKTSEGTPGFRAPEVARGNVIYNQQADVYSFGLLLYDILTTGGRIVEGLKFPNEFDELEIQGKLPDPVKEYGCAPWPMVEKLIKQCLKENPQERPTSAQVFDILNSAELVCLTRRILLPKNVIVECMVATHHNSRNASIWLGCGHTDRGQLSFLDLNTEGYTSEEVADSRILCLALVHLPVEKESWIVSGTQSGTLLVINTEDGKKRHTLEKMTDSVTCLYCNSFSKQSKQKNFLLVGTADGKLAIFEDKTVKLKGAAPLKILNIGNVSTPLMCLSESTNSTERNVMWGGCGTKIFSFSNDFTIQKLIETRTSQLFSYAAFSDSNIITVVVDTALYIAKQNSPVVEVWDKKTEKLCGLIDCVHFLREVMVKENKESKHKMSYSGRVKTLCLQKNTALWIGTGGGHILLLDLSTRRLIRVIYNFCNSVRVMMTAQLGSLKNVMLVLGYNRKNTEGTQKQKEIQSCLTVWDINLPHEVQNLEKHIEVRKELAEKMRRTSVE
TEST: In Vitro LRRK2 LabChip Assay (LRRK2 Ki)
Format: biochemical
CONDITION SUMMARY: Table 5 compounds (formula I)
Experimental: In Vitro LRRK2 LabChip Assay This assay was used to determine a compound's potency in inhibiting activity of LRRK2 by determining, Kiapp, IC50, or percent inhibition values. […] The relative amounts of each were quantitated by fluorescence intensity. LRRK2 Ki was determined according to the equation: Y=V0*(1−((x+Ki*(1+S/Km)+Et)/(2*Et)−(((x+Ki*(1+S/Km)+Et)^2−(4*Et*x))^0.5)/(2*Et))). […] The plate was incubated for 2 hours in the dark. […] Results were read on the LabChip 3000. […]
Below: a set of entries, each annotated with reported Ki.
QUANTITY NAME: Ki

- COMPOUND: "CCNc1nc(Nc2ccc(C(=O)N3CC[C@H](F)C3)cc2F)ncc1C#N [Compound 98]"
  QUANTITY NAME: "Ki"
  RESULT: "17.5 nM"
- COMPOUND: "CCNc1nc(Nc2cc(C)c(C(=O)N3CC[C@H](F)C3)cc2Cl)ncc1C#N [Compound 107]"
  QUANTITY NAME: "Ki"
  RESULT: "9.12 nM"
- COMPOUND: "COc1cc(C(=O)N2CCOCC2)c(F)cc1Nc1ncc(C(F)(F)F)c(OC)n1 [Compound 50]"
  QUANTITY NAME: "Ki"
  RESULT: "33.3 nM"
- COMPOUND: "CNc1nc(Nc2cc(OC)c(C(=O)N3CCC(F)(F)C3)cc2OCCF)ncc1C(F)(F)F [Compound 39]"
  QUANTITY NAME: "Ki"
  RESULT: "1.46 nM"
- COMPOUND: "CCNc1nc(Nc2cc(F)c(C(=O)N3CCOCC3)c(F)c2OC)ncc1C(F)(F)F [Compound 62]"
  QUANTITY NAME: "Ki"
  RESULT: "9.08 nM"
- COMPOUND: "CCNc1nc(Nc2cc(OCF)c(C(=O)N3CCCC3)cc2F)ncc1C(F)(F)F [Compound 121]"
  QUANTITY NAME: "Ki"
  RESULT: "3.43 nM"
- COMPOUND: "CCN(c1ncc(C(F)(F)F)c(NC)n1)c1cc(C)c(C(=O)N2CCOCC2)cc1OCF [Compound 89]"
  QUANTITY NAME: "Ki"
  RESULT: "2600 nM"
- COMPOUND: "CNc1nc(Nc2cc(OC)c(C(=O)N(C)C)cc2OCF)ncc1C(F)(F)F [Compound 120]"
  QUANTITY NAME: "Ki"
  RESULT: "4.42 nM"

###

ASSAY TARGET: LRRK2 (Homo sapiens, UniProt Q5S007, G2019S)
Construct: purchased Invitrogen PV4882
TEST: In Vitro LRRK2 LabChip Assay (LRRK2 Ki)
Type: biochemical
CONDITION SUMMARY: Table 5 compounds (formula I)
Entries and their measured Ki follow.

- COMPOUND: "CCNc1nc(Nc2cc(OC)c(C(=O)NCC(C)(C)O)cc2F)ncc1C(F)(F)F [Compound 28]"
  ASSAY TARGET: "LRRK2 (Homo sapiens, UniProt Q5S007, G2019S)"
  Ki, nM: 6.42
- COMPOUND: "CNc1nc(Nc2cc(F)c(C(=O)NCC(C)(C)O)cc2OC)ncc1C(F)(F)F [Compound 35]"
  ASSAY TARGET: "LRRK2 (Homo sapiens, UniProt Q5S007, G2019S)"
  Ki, nM: 4.36
- COMPOUND: "CCNc1nc(Nc2cc(F)c(C(=O)N3C[C@H]4CC[C@@H](C3)O4)cc2OC)ncc1C(F)(F)F [Compound 6]"
  ASSAY TARGET: "LRRK2 (Homo sapiens, UniProt Q5S007, G2019S)"
  Ki, nM: 0.501
- COMPOUND: "CNc1nc(Nc2cc(F)c(C(=O)N3C[C@@H]4C[C@H]3CO4)cc2OC)ncc1C(F)(F)F [Compound 11]"
  ASSAY TARGET: "LRRK2 (Homo sapiens, UniProt Q5S007, G2019S)"
  Ki, nM: 2.1
- COMPOUND: "CNc1nc(Nc2cc(OC)c(C(=O)N3CCOCC3)c(OC)c2F)ncc1C(F)(F)F [Compound 122]"
  ASSAY TARGET: "LRRK2 (Homo sapiens, UniProt Q5S007, G2019S)"
  Ki, nM: 2.06
- COMPOUND: "COc1cc(C(=O)N2CCOCC2)c(F)cc1Nc1ncc(C(F)(F)F)c(N2CCC2)n1 [Compound 26]"
  ASSAY TARGET: "LRRK2 (Homo sapiens, UniProt Q5S007, G2019S)"
  Ki, nM: 31.5
- COMPOUND: "CNc1nc(Nc2cc(OC)c(C(=O)N3CCC(F)(F)C3)cc2Cl)ncc1C(F)(F)F [Compound 24]"
  ASSAY TARGET: "LRRK2 (Homo sapiens, UniProt Q5S007, G2019S)"
  Ki, nM: 6.67
- COMPOUND: "COc1cc(C(=O)N2CCOCC2)c(OC)cc1Nc1ncc(Cl)c(OC)n1 [Compound 87]"
  ASSAY TARGET: "LRRK2 (Homo sapiens, UniProt Q5S007, G2019S)"
  Ki, nM: 5.5

Cited source: patent US8809331B2
